# Assay System: panel of 442 kinases (Homo sapiens, UniProt Q9UL54)
# Construct: purchased KINOMEscan
# Sequence (Q9UL54 whole entry): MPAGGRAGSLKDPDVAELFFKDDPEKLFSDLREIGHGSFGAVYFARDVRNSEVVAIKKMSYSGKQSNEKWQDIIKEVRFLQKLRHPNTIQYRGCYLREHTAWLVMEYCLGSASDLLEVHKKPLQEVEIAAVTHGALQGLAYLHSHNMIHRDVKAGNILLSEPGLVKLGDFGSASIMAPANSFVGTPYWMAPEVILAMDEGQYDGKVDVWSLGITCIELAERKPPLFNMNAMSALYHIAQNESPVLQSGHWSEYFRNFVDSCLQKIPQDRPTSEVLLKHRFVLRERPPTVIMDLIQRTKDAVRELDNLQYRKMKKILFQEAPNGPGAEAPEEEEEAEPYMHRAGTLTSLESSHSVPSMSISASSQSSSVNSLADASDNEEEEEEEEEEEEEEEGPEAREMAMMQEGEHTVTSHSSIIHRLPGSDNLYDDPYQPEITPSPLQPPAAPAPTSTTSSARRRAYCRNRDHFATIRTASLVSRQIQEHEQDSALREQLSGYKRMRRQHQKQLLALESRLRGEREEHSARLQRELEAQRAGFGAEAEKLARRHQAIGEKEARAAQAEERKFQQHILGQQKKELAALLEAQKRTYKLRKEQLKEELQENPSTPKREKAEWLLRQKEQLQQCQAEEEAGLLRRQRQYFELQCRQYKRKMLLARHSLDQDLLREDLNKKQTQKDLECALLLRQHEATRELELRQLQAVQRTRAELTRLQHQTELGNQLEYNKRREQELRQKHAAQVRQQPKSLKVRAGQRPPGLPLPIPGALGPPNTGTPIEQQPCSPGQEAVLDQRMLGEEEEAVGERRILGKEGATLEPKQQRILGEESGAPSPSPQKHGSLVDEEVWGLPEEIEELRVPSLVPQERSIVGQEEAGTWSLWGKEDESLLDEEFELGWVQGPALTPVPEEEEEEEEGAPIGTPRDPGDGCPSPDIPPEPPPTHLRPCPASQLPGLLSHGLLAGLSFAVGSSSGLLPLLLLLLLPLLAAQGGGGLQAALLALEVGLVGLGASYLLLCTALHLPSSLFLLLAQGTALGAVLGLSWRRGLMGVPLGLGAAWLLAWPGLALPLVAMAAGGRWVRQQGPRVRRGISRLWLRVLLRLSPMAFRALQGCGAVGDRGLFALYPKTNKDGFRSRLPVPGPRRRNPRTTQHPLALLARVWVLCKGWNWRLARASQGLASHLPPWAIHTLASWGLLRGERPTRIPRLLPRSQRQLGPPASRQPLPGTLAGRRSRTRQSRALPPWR
# Format: binding
# Condition Set: kinase TAOK2; compound concentration 10 µM
# Text: We assessed the selectivity of members of this scaffold using the KINOMEscan methodology across a near comprehensive panel of 442 kinases [[18,27]].
Experimental Readout: % Ctrl, TAOK2 (% Ctrl)
A number alone suffices; assume % Ctrl.

Guide cases for % Ctrl, TAOK2, answers given:
>>> readout_number("COc1cc(C(=O)N2CCC(N3CCN(C)CC3)CC2)ccc1Nc1ncc2c(n1)N(C)c1ccccc1C(=O)N2C")
65
>>> readout_number("COc1cc(C(=O)N2CCC(N3CCN(C)CC3)CC2)ccc1Nc1ncc2c(n1)N1CCc3cccc(c31)C(=O)N2C")
100
>>> readout_number("COc1cc(C(=O)N2CCC(N3CCN(C)CC3)CC2)ccc1Nc1ncc2c(n1)N(C1CCCC1)c1ccccc1C(=O)N2C")
74

Name the reported % Ctrl, TAOK2 value associated with the molecule "CCOc1cc(C(=O)N2CCC(N3CCN(C)CC3)CC2)ccc1Nc1ncc2c(n1)N(C1CCCC1)c1ccccc1C(=O)N2C"
78

----------
// reported KINOMEscan: PYK2 for each item listed
# Assay System: panel of 442 kinases (Homo sapiens)
# Construct: purchased KINOMEscan
# Assay type: binding
# Condition Set: Compound Concentration 10 µM
Form rule: numeric answer, no unit written next to it.

>>> readout_number("COc1cc(C(=O)N2CCC(N3CCN(C)CC3)CC2)ccc1Nc1ncc2c(n1)N1CCc3cccc(c31)C(=O)N2C")
77

Please give the measured KINOMEscan: PYK2 for this compound: "COc1cc(C(=O)N2CCC(N3CCN(C)CC3)CC2)ccc1Nc1ncc2c(n1)N(C)c1ccccc1C(=O)N2C"
78

# input compound: "CCOc1cc(C(=O)N2CCC(N3CCN(C)CC3)CC2)ccc1Nc1ncc2c(n1)N(C1CCCC1)c1ccccc1C(=O)N2C" ; wanted: its KINOMEscan: PYK2
43

Consider the compound shown here: "COc1cc(C(=O)N2CCC(N3CCN(C)CC3)CC2)ccc1Nc1ncc2c(n1)N(C1CCCC1)c1ccccc1C(=O)N2C" What is its recorded KINOMEscan: PYK2?
17

----------
Measured KINOMEscan: OSR1 by item
# Assay System: panel of 442 kinases (Homo sapiens)
# Construct: purchased KINOMEscan
# Format: binding
# Condition Set: Compound Concentration 10 µM
# From the text: We assessed the selectivity of members of this scaffold using the KINOMEscan methodology across a near comprehensive panel of 442 kinases [[18,27]].
Answer using only a numeral; do not append any unit.

Illustrative cases are given below, each with its answer.
>>> readout_number("CCOc1cc(C(=O)N2CCC(N3CCN(C)CC3)CC2)ccc1Nc1ncc2c(n1)N(C1CCCC1)c1ccccc1C(=O)N2C [Compound 26]")
99
>>> readout_number("COc1cc(C(=O)N2CCC(N3CCN(C)CC3)CC2)ccc1Nc1ncc2c(n1)N1CCc3cccc(c31)C(=O)N2C [Compound 24]")
100
>>> readout_number("COc1cc(C(=O)N2CCC(N3CCN(C)CC3)CC2)ccc1Nc1ncc2c(n1)N(C)c1ccccc1C(=O)N2C [15 (LRRK2-IN-1)]")
88

For the next question, use this molecule.
For COc1cc(C(=O)N2CCC(N3CCN(C)CC3)CC2)ccc1Nc1ncc2c(n1)N(C1CCCC1)c1ccccc1C(=O)N2C [Compound 25] , what is its reported KINOMEscan: OSR1?
100
